Measured values drawn from patent US20080267971A1 for this set.

% of binding to human Ang-2 values, listed per item
Biological target: T1, human Ang-2443 (human, UniProt O15123 19-496)
T1 construct: Splice variant missing amino acids 96-148; supernatant of transfected 293F cells
T1 sequence: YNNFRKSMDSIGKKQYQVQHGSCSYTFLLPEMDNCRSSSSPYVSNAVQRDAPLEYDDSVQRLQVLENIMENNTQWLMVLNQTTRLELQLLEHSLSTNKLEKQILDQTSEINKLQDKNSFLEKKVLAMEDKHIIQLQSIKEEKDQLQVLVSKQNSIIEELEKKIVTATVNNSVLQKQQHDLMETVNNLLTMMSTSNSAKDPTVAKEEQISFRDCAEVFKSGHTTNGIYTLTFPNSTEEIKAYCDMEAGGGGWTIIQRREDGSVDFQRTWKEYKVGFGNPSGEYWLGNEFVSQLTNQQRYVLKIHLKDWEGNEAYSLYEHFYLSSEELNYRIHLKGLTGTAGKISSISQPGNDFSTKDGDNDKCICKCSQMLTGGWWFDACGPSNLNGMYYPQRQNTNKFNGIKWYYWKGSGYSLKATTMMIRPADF
Test: ELISA

{"columns": ["binder", "% of binding to human Ang-2 / %"],
 "data": [
  ["mAb 5.56.1 (antibody, V domains shown, Human hybridoma IgG (XenoMouse); also called x5.56) VH: QVQLVESGGGVVQPGRSLRLSCAASGFTFSSYGMHWVRQAPGKGLEWVAVIWYDGSNKYYADSVKGRFTISRDNSKNTLYLQMNSLRAEDTAVYYCAREDNWNFYFDYWGQGTLVTVSS VL: DIQMTQSPSSLSASVGDRVTITCRASQGISYYLAWYQQKPGKVPKLLIYAASTLQSGVPSRFSGSGSGTDFTLTISSLQPEDVATYYCQKYNSAPFTFGPGTKVDIKR", 100],
  ["mAb 5.88.3 (antibody, V domains shown, Human hybridoma IgG (XenoMouse); also called x5.88) VH: EVQMVESGGGLVQPGGSLRLSCAASGFTLRSYWMSWVRQAPGKGLEWVANIKEDGSEKYHVDSVKGRFTISRDNAENSLFLQMSSLRAEDTAVYYCARDMEASAGLFDYWGQGTLVTVSS VL: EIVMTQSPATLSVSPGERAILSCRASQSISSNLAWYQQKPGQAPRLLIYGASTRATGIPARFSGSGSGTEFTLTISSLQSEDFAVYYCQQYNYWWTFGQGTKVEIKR", 100],
  ["mAb 5.39.1 (antibody, V domains shown, Human hybridoma IgG (XenoMouse); also called x5.39) VH: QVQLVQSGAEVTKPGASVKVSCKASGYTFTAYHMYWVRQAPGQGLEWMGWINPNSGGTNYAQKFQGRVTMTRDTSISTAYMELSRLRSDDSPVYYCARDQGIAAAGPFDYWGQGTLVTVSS VL: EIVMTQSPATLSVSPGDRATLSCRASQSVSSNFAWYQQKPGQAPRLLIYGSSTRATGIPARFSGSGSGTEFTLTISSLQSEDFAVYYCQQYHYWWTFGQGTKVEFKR", 100],
  ["mAb 5.52.1 (antibody, V domains shown, Human hybridoma IgG (XenoMouse); the line 5.52 has entries of its own (347, 349; light chain L2) that differ from the clone 5.52.1 (L5); also called x5.52) VH: QVQLVESGGGVVQPGRSLRLSCAASGFTFSSYGMHWVRQAPGKGLEWVAVRWYDESNKYYADSVKGRFTISRDNSKNTLYLQMNSLRAEDTAVYYCARDPFETGTTFDYWGQGTLVTVSS VL: DIQMTQSPSSVSASVGDRVTITCRASQGISSWLAWYQQKPGKAPKLLIYAVSSLESGVPSRFSGSGSGTDFTLTISSLQPEDFATYYCQQALTFGGGTKVEIKR", 100],
  ["mAb 5.35.1 (antibody, V domains shown, Human hybridoma IgG (XenoMouse); also called x5.35) VH: EVQLVESGGGVVRPGGSLRLSCTTSGFTFDDYGMSWVRQAPGKGLEWVSGINWNGGSTVYADSVKGRFTISRDSAKNSLYLQMNSLRAEDTALYHCARNKQWLWYFDLWGRGTLVTVSS VL: EIVMTQSPATLSVSPGERATLSCRASQSVSSNLAWYQQKPGQAPRLLIYGASTRATGIPARFSGSGSGTEFTLTISSLQSEDFAVYYCEQYNNWPLTFGGGTKVEIKR", 100]
]}
